- Method Description: Inhibition of beta-hematin formation assessed as reduction in acetate buffer-initiated hemozoin formation measured after 48 hrs
- Design: concentration or dose not given beside the values
- Condition: concentration not given here
Parameter: inhibition (%)
Lab book: enter the figure in %, no units written.

Ask: Please list inhibition recorded for the compound "COC(=O)/C(=C\c1ccc(OC(=O)c2c(OC)cccc2OC)cc1)Sc1ccnc2cc(Cl)ccc12"
Reply: 92.7

Ask: Tell me measured inhibition for "COC(=O)/C(=C\c1ccc(OC(=O)c2cc(OC)cc(OC)c2OC)cc1)Sc1ccnc2cc(Cl)ccc12" please.
Reply: 47.7

Ask: Give recorded inhibition. "COC(=O)/C(=C\c1ccc(OC(=O)c2cccc(OC)c2)cc1)Sc1ccnc2cc(Cl)ccc12"
Reply: 87.1

Ask: Note down inhibition recorded for "COC(=O)/C(=C\c1ccc(OC(=O)c2ccc(OC)cc2OC)cc1)Sc1ccnc2cc(Cl)ccc12"
Reply: 49.2

Ask: Tell me inhibition reported for "COC(=O)/C(=C\c1ccc(OC(=O)c2ccccc2OC)cc1)Sc1ccnc2cc(Cl)ccc12"
Reply: 94.6

Ask: Fill in reported inhibition for this entry: "COC(=O)/C(=C\c1ccc(OC(=O)c2ccc(OC)c(OC)c2)cc1)Sc1ccnc2cc(Cl)ccc12"
Reply: 12.7

Ask: Hello, please tell me recorded inhibition for this one: "COC(=O)/C(=C\c1ccc(OC(=O)c2ccc(OC)cc2)cc1)Sc1ccnc2cc(Cl)ccc12"
Reply: 12.2

Ask: Identify inhibition associated with the compound "COC(=O)/C(=C\c1ccc(OC(=O)c2cc(OC)c(OC)cc2OC)cc1)Sc1ccnc2cc(Cl)ccc12"
Reply: 39.6
